pIC50: −log10 of the molar value.
pIC50 for UniProt P29375, merged from several publications.

- COMPOUND: "N#CNC(=O)c1ccncc1Nc1nn(CCN2CCCC2)c2ccc(F)cc12"
  pIC50: "> 7.00"
- COMPOUND: "O=C(O)c1ccnc(-n2nccc2OCc2ccc3cn[nH]c3c2)c1"
  pIC50: "6.00 to 7.00"
- COMPOUND: "O=S(=O)(C1CC1)N1CC[C@@H](n2cc(Oc3nc(O)c4ccncc4n3)cn2)C1"
  pIC50: "≥ 7.00"
- COMPOUND: "CN1CCOC(CCn2nc(Nc3cnccc3C(=O)O)c3cc(F)ccc32)C1 (centres unmarked)"
  pIC50: "> 7.00"
- COMPOUND: "COC(=O)c1ccnc2cc(CO)[nH]c12"
  pIC50: "< 5.00"

====

pIC50 for Lysine-specific demethylase 5A (Homo sapiens), merged from several publications.
pIC50: −log10 of the molar value.
READOUT_KIND: pIC50

- COMPOUND: "CC(CO)COc1nc(O)c2ccncc2n1 (stereo not drawn)"
  TEST_VALUE: "6.00 to 7.00"
- COMPOUND: "O=C(O)c1ccncc1Nc1noc2ccccc12"
  TEST_VALUE: "> 7.00"
- COMPOUND: "CC(C)c1cc(C(=O)N2CCC(n3cc(Br)c(C#N)n3)C2)[nH]n1 (stereo not drawn)"
  TEST_VALUE: 8.68
- COMPOUND: "Cc1ccc(-c2cc(C)nn2-c2cc(C(=O)O)ccn2)cc1"
  TEST_VALUE: "5.00 to 6.00"
- COMPOUND: "CCCn1cc(Oc2nc(O)c3ccncc3n2)cn1"
  TEST_VALUE: "≥ 7.00"
- COMPOUND: "Oc1nc(OCc2cccc(Cl)c2Cl)nc2cnccc12"
  TEST_VALUE: "5.00 to 6.00"
- COMPOUND: "Cc1cc(-c2cnn(C)c2)cc(C2=CCN(C(=O)c3cc(C(C)C)n[nH]3)C2)n1"
  TEST_VALUE: 7.74
- COMPOUND: "Cc1ccc2c(c1)c(Nc1cnccc1C(=O)O)nn2CCC(F)(F)F"
  TEST_VALUE: "> 7.00"
- COMPOUND: "CCS(=O)(=O)N1CCC[C@@H](n2cc(Oc3nc(O)c4ccncc4n3)cn2)C1"
  TEST_VALUE: "≥ 7.00"
- COMPOUND: "COc1ccc(Cc2cc3nccc(C(=O)O)c3[nH]2)cc1"
  TEST_VALUE: "6.00 to 7.00"
- COMPOUND: "O=C(O)c1ccnc(-n2nccc2CCc2ccccc2)c1"
  TEST_VALUE: "5.00 to 6.00"
- COMPOUND: "COCC1(C(=O)NC2CCN(C(=O)c3cc(C(C)C)n[nH]3)C2)CC1 (stereo not drawn)"
  TEST_VALUE: 9.24
- COMPOUND: "CC(C)n1cnc(C(=O)N2CCC(NC(=O)C3CC3)C2)c1 (stereo not drawn)"
  TEST_VALUE: 9.68
- COMPOUND: "CN(CCn1cnc(-c2cc(C(=O)O)ccn2)c1)Cc1cccc(F)c1"
  TEST_VALUE: "≥ 7.00"
- COMPOUND: "CC(=O)N(C)CCOc1nc(O)c2ccncc2n1"
  TEST_VALUE: "6.00 to 7.00"
- COMPOUND: "O=C(O)c1ccncc1Nc1nn([C@@H]2CCOC2)c2ccc(F)cc12"
  TEST_VALUE: "> 7.00"
- COMPOUND: "Cc1cc(OCc2ccccc2)n(-c2cc(C(=O)O)ccn2)n1"
  TEST_VALUE: "6.00 to 7.00"
- COMPOUND: "N#CCC(=O)N1CCC[C@H](n2cc(Oc3nc(O)c4ccncc4n3)cn2)C1"
  TEST_VALUE: "≥ 7.00"
- COMPOUND: "COc1ccc(C(=O)NC2CCN(C(=O)c3cc(C(C)C)n[nH]3)C2)cc1 (stereo not drawn)"
  TEST_VALUE: 9.57
- COMPOUND: "CC(C)c1cc(C(=O)N2CCC(c3ccncn3)C2)[nH]n1 (stereo not drawn)"
  TEST_VALUE: 8.01
- COMPOUND: "O=C(O)c1ccnc(-n2nc(C3CCCC3)cc2O)c1"
  TEST_VALUE: "5.00 to 6.00"
- COMPOUND: "CC(C)c1cc(C(=O)N2CCC(NC(=O)c3ccc4cc[nH]c4n3)C2)[nH]n1 (stereo not drawn)"
  TEST_VALUE: 10.12
- COMPOUND: "Oc1nc(OCc2cccc3ccccc23)nc2cnccc12"
  TEST_VALUE: "5.00 to 6.00"
- COMPOUND: "CC(C)c1cc(C(=O)N2CC[C@@H](n3cccc(C4CC4)c3=O)C2)[nH]n1"
  TEST_VALUE: 10.29
- COMPOUND: "COc1cccc(-c2cc(C)nc(C3CCN(C(=O)c4cc(C(C)C)n[nH]4)C3)c2)c1 (stereo not drawn)"
  TEST_VALUE: 9.66
- COMPOUND: "CC(C)c1cc(C(=O)N2CCC(NC(=O)C3CNC3)C2)[nH]n1 (stereo not drawn)"
  TEST_VALUE: 8.28
- COMPOUND: "O=C(O)c1ccncc1Nc1nn(CC(F)(F)F)c2ccc(F)cc12"
  TEST_VALUE: "> 7.00"

====

IC50 for Lysine-specific demethylase 5A (Homo sapiens), merged from several publications.

- COMPOUND: "CC(C)(C)OC(=O)Nc1cccc(Oc2nc(O)c3ccncc3n2)c1"
  IC50: "≤ 100 nM"
- COMPOUND: "COC(=O)c1ccnc2cc(C(O)c3cccc(C)c3)[nH]c12 (racemic)"
  IC50: "1000 to 10000 nM"
- COMPOUND: "Cc1ccc(COc2ccnn2-c2cc(C(=O)O)ccn2)cc1F"
  IC50: "< 100 nM"
- COMPOUND: "CC(C)c1cc(C(=O)N2CCC(NC(=O)C3(C)CC3)C2)[nH]n1 (centres unmarked)"
  IC50: "0.059 nM"
- COMPOUND: "Cc1cc(-c2cnn(CC(F)(F)F)c2)cc(C2CCN(C(=O)c3cc(C(C)C)n[nH]3)C2)n1 (centres unmarked)"
  IC50: "0.4 nM"
- COMPOUND: "CC(C)c1cc(C(=O)N2CCC(c3ccc(-c4ccccc4)cn3)C2)[nH]n1 (centres unmarked)"
  IC50: "1.4 nM"
- COMPOUND: "Cn1cnc(-c2cc(C(=O)O)ccn2)c1Br"
  IC50: "≤ 100 nM"
- COMPOUND: "O=C(O)c1ccnc2cc(Cc3ccc(F)cc3)[nH]c12"
  IC50: "< 100 nM"
- COMPOUND: "O=C(O)c1ccnc(-n2nccc2OCc2ccc(F)cc2)c1"
  IC50: "< 100 nM"
- COMPOUND: "O=C(O)c1ccnc(-n2nccc2OCc2ccc(F)cc2F)c1"
  IC50: "< 100 nM"
- COMPOUND: "CCCC(Oc1ccccc1)c1cc2nccc(C(=O)O)c2[nH]1 (racemic)"
  IC50: "< 100 nM"
- COMPOUND: "O=C(O)c1ccncc1Nc1nn(CC(O)CO)c2ccc(F)cc12 (centres unmarked)"
  IC50: "< 100 nM"
- COMPOUND: "Oc1nc(OCC2CC2)nc2cnccc12"
  IC50: "≤ 100 nM"
- COMPOUND: "Oc1nc(OCCOCC(F)(F)F)nc2cnccc12"
  IC50: "100 to 1000 nM"
- COMPOUND: "CC(c1ccc(F)cc1)c1cc2nccc(C(=O)O)c2[nH]1 (centres unmarked)"
  IC50: "100 to 1000 nM"
- COMPOUND: "Cc1cc(-c2cnn(CCO)c2)cc(C2CCN(C(=O)c3cc(C(C)C)n[nH]3)C2)n1 (centres unmarked)"
  IC50: "0.41 nM"
- COMPOUND: "FC(F)(F)c1ccccc1CCn1cnc(-c2cc(-c3nn[nH]n3)ccn2)c1"
  IC50: "100 to 1000 nM"
- COMPOUND: "N#CNC(=O)c1ccncc1Nc1nn([C@H]2CCOC2)c2ccc(F)cc12"
  IC50: "< 100 nM"
- COMPOUND: "Oc1nc(Oc2cnn(C(c3ccccc3)C3CC3)c2)nc2cnccc12 (centres unmarked)"
  IC50: "≤ 100 nM"
- COMPOUND: "O=C(O)c1ccncc1Nc1nn(CCC(F)(F)F)c2ccc(F)cc12"
  IC50: "< 100 nM"
- COMPOUND: "COCCCn1cc(Oc2nc(O)c3ccncc3n2)cn1"
  IC50: "≤ 100 nM"
- COMPOUND: "O=C(O)c1ccnc(-c2cn(CCN(Cc3ccc(Cl)c(Cl)c3)C3CC3)cn2)c1"
  IC50: "≤ 100 nM"
- COMPOUND: "Cn1nc(Nc2cnccc2C(=O)O)c2c(F)cccc21"
  IC50: "< 100 nM"
- COMPOUND: "CCn1nc(Nc2cnccc2C(=O)O)c2cc(C)ccc21"
  IC50: "< 100 nM"
- COMPOUND: "CC(C)c1cc(C(=O)N2CCC(NC(=O)c3ccccc3Cl)C2)[nH]n1 (centres unmarked)"
  IC50: "0.098 nM"
- COMPOUND: "CC(C)c1cc(C(=O)N2CCC(C(=O)NCc3cnn(C)c3)C2)[nH]n1 (centres unmarked)"
  IC50: "15 nM"
- COMPOUND: "CC(C)c1cc(C(=O)N2CCC(NC(=O)c3ccc4[nH]ccc4n3)C2)[nH]n1 (centres unmarked)"
  IC50: "0.078 nM"
- COMPOUND: "O=C(O)c1ccnc(-n2nccc2OCc2ccc(Cl)c(C(F)(F)F)c2)c1"
  IC50: "< 100 nM"
- COMPOUND: "COc1cc(Cl)ccc1CNc1cnccc1C(=O)O"
  IC50: "≤ 100 nM"
